Test system: Caki-2 cells
Experiment: CTG (CellTiter-Glo) cell viability assay, Caki-2
Format: cell-based
Conditions: Homo sapiens, CAKI-2, 72 h, Caki-2, 3-day; read-out: CTG Chempartner/PHA- Caki-2 3-day: Average external-IC50

COMPOUND | MEASUREMENT_TARGET | IC50
COc1ccc(Oc2cc(N3CCN(CC4=C(c5ccc(Cl)cc5)CC(C)(C)CC4)CC3)ccc2C(=O)NS(=O)(=O)c2ccc(NCCCN3CCN(C(=O)CCCCCC(=O)N[C@H](C(=O)C4C[C@H](O)C[C@H]4C(=O)C[C@@H](C)c4ccc(-c5scnc5C)cc4)C(C)(C)C)CC3)c(S(=O)(=O)C(F)(F)F)c2)cc1 (some centres unmarked) | Caki-2 cells | > 30 µM
C#Cc1ccc([C@H](C)NC(=O)[C@@H]2C[C@@H](O)CN2C(=O)[C@@H](NC(=O)CCCCCCC(=O)N2CCN(C[C@]3(C)CCC(c4ccc(Cl)cc4)=C(CN4CCN(c5ccc(C(=O)NS(=O)(=O)c6ccc(NCCCN7CCOCC7)c(S(=O)(=O)C(F)(F)F)c6)c(Oc6cnc7[nH]ccc7c6)c5)CC4)C3)CC2)C(C)(C)C)cc1 | Caki-2 cells | 10 to 30 µM
